# TARGET_UNDER_TEST: pooled human IgG (human IgG1, 2, 3 and 4)
MEASURED_PARAMETER: Enzyme Activity Endpoint Assay (purified): scIgG
A complete answer gives the number followed by the unit.

Before answering, review these 3 worked examples.
[[record]]
protein = "PRT-497 (protein) MVTSVWTKGVTPPTDFRKIVDGNIAYYHAPYKAGQGWYDITKTFNGKDDLLCGAATAGNMLHWWFDQNKEYIEAYLKKHPEKQKIMFGDQELLDVRKAINTKGSQKNSELFNYFRDKAFPNLSARRLGVMPDLVLDMFINGYYLNVTKTQTTDVNRTYQEKDKRGGIFDAVFTRGDQSKLLTSRHDFKEKGLKEISDLIKQELTEGKALGLSHTYANVRINHVINLWGADFDSDGNLKAIYVTDSDSNASIGMKKYFVGVNSAGKVAISAKEIKEDNIGAQVLGLFTLSTGQDIWNQTNLEHHHHHH"
recorded_value = "0 ng/µL"

[[record]]
protein = "PRT-390 (protein) MVTSVWTKGVTPPTNFTYGEDVLHAPYVANQGWYDITKTFNGKDDLLCGAATAGNMLHWWFDQNKEQIENYLKKHPEKQKINFNGEQLFDVKEAIDTKDSQLDSKLFEYFKEKAFPYLSTKHLGVFPDHVIDMFINGYRLSLTNHGPTPVKRGSKDPRGGIFDAVFTRGDQSKLLTNRHDFKEKTLKEISDLIKQELTEGKALGISHTYANVRINHVINLWGADFDAEGNLEAIYVTDSDSNASIGMKKYFVGVNSNGKVAISAKEIEEDNIGAQVLGLFTLSTGQDIWNQTN"
recorded_value = "227 ng/µL"

[[record]]
protein = "PRT-644 (protein) MQITSVWTKGVTPLTPEQFRYNNEDVIHAPYLAHQGWYDITKAFDGKDNLLCGAATAGNMLHWWFDQNKTEIEAYLSKHPEKQKIIFNNQELFDLKAAIDTKDSQTNSQLFNYFRDKAFPNLSARQLGVMPDLVLDMFINGYYLNVFKTQSTDVNRPYQDKDKRGGIFDAVFTRGDQTTLLTARHDLKNKGLNDISTIIKQELTEGRALALSHTYANVSISHVINLWGADFNAEGNLEAIYVTDSDANASIGMKKYYVGKNASGHVAISAKKIEDENIGAQVLGLFTLSSGKDIWQKLSLEHHHHHH"
recorded_value = "355 ng/µL"


Next up:
Param item = PRT-422 (protein) MTITSVWTKGVTPPTPEDFRYNNEDVLHAPYVANQGWYDITKTFDGKDNLLCGAATAGNMLHWWFDQNKEEIERYLKKHPEKQKIIFNNQELFDVKAAIDTKDSQTNSKLFNYFRDKAFPNLSARQLGVMPDLVLDMFINGYYLNLGKTQSTDVNRPYQDKDKRGGIFDAVFTRGDQTTLLTARHDLKNKGLNEISDLIKQELTEGKALALSHTYANVRINHVINLWGADFDAEGNLIAIYVTDSDANPSIGMKKYFVGVNANGKVAISAKKIEGDNIGAQVLGLFTLSTGQDIWQKLS ; retrieve measured Enzyme Activity Endpoint Assay (purified): scIgG.
136 ng/µL

Taken from patent US20250027068.
